# testedOn: DR4 (DRB1*0401) molecules (Homo sapiens, UniProt P01903+P01911, A100K/A169T/F76Y/I96L/K127E/L162R/M171V/N62H/P40V/Q125Y/R42H/S133A/S149N/S66Y/V115G/V209L/W38E)
# Construct: molecules were purified from the homozygous EBV-transformed human B lymphoblastoid cell lines Huly138IC2 and BM92 using the mAb; endogenous in cells
# procedureSummary: Peptide HLA-DR binding assay (semi-quantitative competition binding)
# condition: Table IIIA; competition with biotinylated marker peptide HA 309 Y→F, pH5.0, 44 hr RT
Ends that are not written are not given here.
measurementLabel: IC50

Below, each entry is followed by its recorded IC50 result.
1. TFIKSVPPFLRTHGFD [compound 17, TFIKSVPPFLRTHGFD] ... 1 to 10 µM
2. RGATVHRTLGQQVPYA [compound 48, RGATVHRTLGQQVPYA] ... 10 to 100 µM
3. DLAWLYPGRRDKQHFT [peptide 20, DLAWLYPGRRDKQHFT] ... 100 to 1000 µM

Prompt line: Param item = DFQGSFCGQDLRFPLT [compound 57, DFQGSFCGQDLRFPLT] ; retrieve measured IC50.
Response line: 1 to 10 µM

Prompt line: Suppose we examine the sequence TIDSSYDIAKISQHLD [compound 28, TIDSSYDIAKISQHLD] ; what IC50 value has been reported?
Response line: < 1 µM

Prompt line: Param item = YKLVCYYTSWSQYREG [peptide 1, YKLVCYYTSWSQYREG] ; retrieve measured IC50.
Response line: < 1 µM

Prompt line: Field request: IC50 | item: YTSWSQYREGDGSCFP [peptide 2, YTSWSQYREGDGSCFP]
Response line: 10 to 100 µM

Prompt line: Quick check: IC50 of QHLDFISIMTYDFHGA [peptide 30, QHLDFISIMTYDFHGA] ?
Response line: < 1 µM

Prompt line: Query: IC50; subject: GTLAYYEICDFLRGAT [compound 46, GTLAYYEICDFLRGAT]
Response line: < 1 µM

Prompt line: Please give the measured IC50 for this sequence: LDRFLCTHIIYSFANI [compound 5, LDRFLCTHIIYSFANI]
Response line: < 1 µM

Prompt line: Entry EICDFLRGATVHRTLG [compound 47, EICDFLRGATVHRTLG] has what IC50?
Response line: < 1 µM

Prompt line: Return reported IC50; argument: PASKLVMGIPTFGRSF [compound 39, PASKLVMGIPTFGRSF]
Response line: 1 to 10 µM

Prompt line: Name the reported IC50 value associated with the sequence NTQSRRTFIKSVPPFL [compound 16, NTQSRRTFIKSVPPFL]
Response line: < 1 µM

Prompt line: Any idea what IC50 was measured for HGFDGLDLAWLYPGRR [compound 19, HGFDGLDLAWLYPGRR] ?
Response line: 10 to 100 µM

Prompt line: Given the entry LAGAMVWALDLDDFQG [compound 55, LAGAMVWALDLDDFQG] , report its measured IC50.
Response line: < 1 µM

Prompt line: Return reported IC50; argument: YREGDGSCFPDALDRF [peptide 3, YREGDGSCFPDALDRF]
Response line: 10 to 100 µM

Prompt line: Could you tell me which IC50 is on file for MGIPTFGRSFTLASSE [compound 40, MGIPTFGRSFTLASSE] ?
Response line: < 1 µM

Prompt line: Recorded IC50 of VKSKVQYLKDRQLAGA [compound 53, VKSKVQYLKDRQLAGA] , please.
Response line: < 1 µM

Prompt line: Bench note: what IC50 did SPLFRGQEDASPDRFS [compound 34, SPLFRGQEDASPDRFS] show?
Response line: < 1 µM

Prompt line: // returns reported IC50 for input DYAVGYMLRLGAPASK [compound 37, DYAVGYMLRLGAPASK]
Response line: < 1 µM

Prompt line: Field request: IC50 | item: DIAKISQHLDFISIMT [compound 29, DIAKISQHLDFISIMT]
Response line: < 1 µM

Prompt line: Dear colleague, I am looking for the recorded IC50 of the following sequence: THIIYSFANISNDHID [compound 6, THIIYSFANISNDHID]
Response line: < 1 µM
